Target: Leishmania infantum
Experiment: Leishmanicidal activity against promastigote stage of Leishmania infantum MCAN/ES/92/BCN722 after 48 hrs by acid phosphatase based assay
Assay type: functional, organism-based
measure: pIC50
Schema: pIC50 number; meaning minus log10 of the concentration expressed in molar units.

Exercise: Can you share its pIC50? I mean this sequence: POTASSIUM ANTIMONYL TARTRATE TRIHYDRATE
Solution: 4.61

The reported measurements were obtained from ChEMBL document CHEMBL3739321.
